system_tested: T1, human GIP receptor (human, UniProt P48546 22-466)
T1 sequence (looked up): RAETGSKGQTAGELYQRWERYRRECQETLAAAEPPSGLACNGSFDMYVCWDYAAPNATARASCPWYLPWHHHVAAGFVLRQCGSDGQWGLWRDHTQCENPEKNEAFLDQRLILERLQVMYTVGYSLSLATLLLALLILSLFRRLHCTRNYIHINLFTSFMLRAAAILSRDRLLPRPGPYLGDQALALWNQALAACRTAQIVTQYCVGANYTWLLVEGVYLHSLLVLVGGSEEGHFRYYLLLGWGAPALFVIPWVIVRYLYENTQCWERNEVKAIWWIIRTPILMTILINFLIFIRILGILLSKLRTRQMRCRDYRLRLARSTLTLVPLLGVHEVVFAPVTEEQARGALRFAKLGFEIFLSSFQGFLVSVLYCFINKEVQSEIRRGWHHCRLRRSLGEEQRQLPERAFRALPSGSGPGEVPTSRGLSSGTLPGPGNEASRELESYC
test_protocol: cell-based or functional assay
Bridges are numbered along the chain shown (N, C = ends). Where no end group is shown, it is not given here. [ ]: non-standard residue; d: D form. Aib = CC(C)(N)C(=O)O
measure_name: In vitro activity (%) vs. GIP, cAMP EC50

1. H[Aib]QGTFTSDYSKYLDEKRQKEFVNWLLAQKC (bridge 16-20) [triple agonist of SEQ ID NO: 34] : 0.6%
2. H[Aib]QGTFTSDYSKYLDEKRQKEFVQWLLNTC (bridge 16-20; ends not checked) [triple agonist of SEQ ID NO: 51] : 0.1%
3. H[Aib]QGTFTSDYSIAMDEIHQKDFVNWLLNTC (bridge 16-20; ends not checked) [triple agonist of SEQ ID NO: 57] : 0.3%

All values here come from patent US20220088148A1.
